- Tested on: hTERT-HMEC;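 note: secreted proteins added to cultured cells, EdU pulse at the end, nuclei found by Hoechst imaging, EdU status from nuclear versus surrounding ring intensity ratio, PBS as neutral control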
- METHOD: percentage of EdU-negative (G0-arrested) nuclei per well, 72 h; higher = more G0 arrest
- RUN PARAMETERS: protein concentration 0.3125 µM; reference: sequence is the full UniProt precursor, the tested protein was the secreted form or ectodomain
QUANTITY NAME: percentage of EdU-negative (%)
Answer in %, number only, no unit symbol.

Known results for sequences:
SEQ	ENDPOINT RESULT
MAKVFSFILVTTALTMGREISALEDCAQEQMRLRAQVRLLETRVKQQQVKIKQLLQENEVQFLDKGDENTVIDLGSKRQYADCSEIFNDGYKLSGFYKIKPLQSPAEFSVYCDMSDGGGWTVIQRRSDGSENFNRGWKDYENGFGNFVQKHGEYWLGNKNLHFLTTQEDYTLKIDLADFEKNSRYAQYKNFKVGDEKNFYELNIGEYSGTAGDSLAGNFHPEVQWWASHQRMKFSTWDRDHDNYEGNCAEEDQSGWWFNRCHSANLNGVYYSGPYTAKTDNGIVWYTWHGWWYSLKSVVMKIRPNDFIPNVI	5.22
MKLWDVVAVCLVLLHTASAFPLPAGKRPPEAPAEDRSLGRRRAPFALSSDSNMPEDYPDQFDDVMDFIQATIKRLKRSPDKQMAVLPRRERNRQAAAANPENSRGKGRRGQRGKNRGCVLTAIHLNVTDLGLGYETKEELIFRYCSGSCDAAETTYDKILKNLSRNRRLVSDKVGQACCRPIAFDDDLSFLDDNLVYHILRKHSAKRCGCI	5.86
MQAAWLLGALVVPQLLGFGHGARGAEREWEGGWGGAQEEEREREALMLKHLQEALGLPAGRGDENPAGTVEGKEDWEMEEDQGEEEEEEATPTPSSGPSPSPTPEDIVTYILGRLAGLDAGLHQLHVRLHALDTRVVELTQGLRQLRNAAGDTRDAVQALQEAQGRAEREHGRLEGCLKGLRLGHKCFLLSRDFEAQAAAQARCTARGGSLAQPADRQQMEALTRYLRAALAPYNWPVWLGVHDRRAEGLYLFENGQRVSFFAWHRSPRPELGAQPSASPHPLSPDQPNGGTLENCVAQASDDGSWWDHDCQRRLYYVCEFPF [Q9Y240]	6.64
MSLSFLLLLFFSHLILSAWAHGEKRLAPKGQPGPAATDRNPRGSSSRQSSSSAMSSSSASSSPAASLGSQGSGLEQSSFQWSPSGRRTGSLYCRVGIGFHLQIYPDGKVNGSHEANMLSVLEIFAVSQGIVGIRGVFSNKFLAMSKKGKLHASAKFTDDCKFRERFQENSYNTYASAIHRTEKTGREWYVALNKRGKAKRGCSPRVKPQHISTHFLPRFKQSEQPELSFTVTVPEKKKPPSPIKPKIPLSAPRKNTNSVKYRLKFRFG	5.28
MTSSLLLAFLLLAPTTVATPRAGGQCPACGGPTLELESQRELLLDLAKRSILDKLHLTQRPTLNRPVSRAALRTALQHLHGVPQGALLEDNREQECEIISFAETGLSTINQTRLDFHFSSDRTAGDREVQQASLMFFVQLPSNTTWTLKVRVLVLGPHNTNLTLATQYLLEVDASGWHQLPLGPEAQAACSQGHLTLELVLEGQVAQSSVILGGAAHRPFVAARVRVGGKHQIHRRGIDCQGGSRMCCRQEFFVDFREIGWHDWIIQPEGYAMNFCIGQCPLHIAGMPGIAASFHTAVLNLLKANTAAGTTGGGSCCVPTARRPLSLLYYDRDSNIVKTDIPDMVVEACGCS	5.17
MALSFSLLMAVLVLSYKSICSLGCDLPQTHSLGNRRALILLAQMGRISPFSCLKDRHDFGFPQEEFDGNQFQKAQAISVLHEMIQQTFNLFSTKDSSATWEQSLLEKFSTELNQQLNDLEACVIQEVGVEETPLMNVDSILAVKKYFQRITLYLTEKKYSPCAWEVVRAEIMRSFSLSKIFQERLRRKE	17.6
MLAPGSSPGQRGRLALQWRQVSWITCWIALYAVEALPTCPFSCKCDSRSLEVDCSGLGLTTVPPDVPAATRTLLLLNNKLSALPSWAFANLSSLQRLDLSNNFLDRLPRSIFGDLTNLTELQLRNNSIRTLDRDLLRHSPLLRHLDLSINGLAQLPPGLFDGLLALRSLSLRSNRLQNLDRLTFEPLANLQLLQVGDNPWECDCNLREFKHWMEWFSYRGGRLDQLACTLPKELRGKDMRMVPMEMFNYCSQLEDENSSAGLDIPGPPCTKASPEPAKPKPGAEPEPEPSTACPQKQRHRPASVRRAMGTVIIAGVVCGVVCIMMVVAAAYGCIYASLMAKYHRELKKRQPLMGDPEGEHEDQKQISSVA [Q8N967]	5.93
MGPLSAPPCTEHIKWKGLLLTALLLNFWNLPTTAQVMIEAQPPKVSEGKDVLLLVHNLPQNLTGYIWYKGQIRDLYHYITSYVVDGQIIIYGPAYSGRETVYSNASLLIQNVTREDAGSYTLHIIKRGDGTRGVTGYFTFTLYLETPKPSISSSNLNPREAMETVILTCNPETPDASYLWWMNGQSLPMTHRMQLSETNRTLFLFGVTKYTAGPYECEIWNSGSASRSDPVTLNLLHGPDLPRIFPSVTSYYSGENLDLSCFANSNPPAQYSWTINGKFQLSGQKLFIPQITPKHNGLYACSARNSATGEESSTSLTIRVIAPPGLGTFAFNNPT [Q9UQ72]	5.46

Could you now look at the following sequence, please?
# input Value lookup for percentage of EdU-negative; key = `MKALLALPLLLLLSTPPCAPQVSGIRGDALERFCLQQPLDCDDIYAQGYQSDGVYLIYPSGPSVPVPVFCDMTTEGGKWTVFQKRFNGSVSFFRGWNDYKLGFGRADGEYWLGLQNMHLLTLKQKYELRVDLEDFENNTAYAKYADFSISPNAVSAEEDGYTLFVAGFEDGGAGDSLSYHSGQKFSTFDRDQDLFVQNCAALSSGAFWFRSCHFANLNGFYLGGSHLSYANGINWAQWKGFYYSLKRTEMKIRRA`
# output 4.91

Numbers sourced from the supplement of paper PMC11316812.
